Give self-cleavage for every item shown.
B1: CPEB3 Ribozyme (parent)
chain: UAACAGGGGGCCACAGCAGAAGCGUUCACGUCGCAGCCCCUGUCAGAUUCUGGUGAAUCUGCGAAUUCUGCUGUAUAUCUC

Variants of: B1
Assay: self-cleavage, relative activity (ratio to wild type); higher = more cleavage; in vitro, sequencing
No unit in the answer, please; the number alone is enough.

The reported self-cleavage of the variant U54C U60G was 0.5

Looking up G24A U41C , I see its self-cleavage listed as 0.3

The value of self-cleavage measured for the variant G6C U67C turned out to be 0.3
